These measurements were taken from the RNAGym collection of RNA variant scans (doi:10.7554/elife.80360).

B1: CPEB3 Ribozyme (parent)
chain: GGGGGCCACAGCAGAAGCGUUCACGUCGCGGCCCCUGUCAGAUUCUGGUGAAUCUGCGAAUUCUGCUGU

Variants of: B1
assay.details: self-cleavage, relative activity (ratio to wild type); higher = more cleavage; co-transcriptional
Decide using self-cleavage: a value greater than or equal to 0.4 is MET, a smaller one is NOT MET.

Query: Is self-cleavage for A10U U61G at or above 0.4?
Reply: MET
